MEASUREMENT TYPE: logP
Write no unit; give the number alone.

Query block: Endpoint output: logP of O=C(CC(=O)C(F)(F)F)c1cccs1 . Value?
Result block: 1.46

***
Query block: Name the recorded logP for Clc1ccc2ccccc2n1 .
Result block: 2.71

Query block: Which logP reading was recorded for the compound CN(C)c1ccc2c(c1)C(=O)N(S(C)(=O)=O)C2=O ?
Result block: 1.65

Query block: Recorded logP for CCOP(=S)(OCC)Oc1ccc(SC)cc1C , please?
Result block: 4.16

###

MEASUREMENT TYPE: logP
Please reply with the value in numeric form only.

Some solved cases for reference:
Query block: Item under review: CC(=O)Nc1ccc([N+](=O)[O-])cc1 . Reported logP?
Result block: 1.66

Query block: Recorded logP of O=c1ccnc(S)[nH]1 , please.
Result block: -0.28

Query block: For the compound shown here, CN(C)C(=O)Nc1ccc(F)cc1 , give the reported logP.
Result block: 1.13

Query block: I would be grateful if you could share the reported logP for Cc1[nH]cnc1CSCCNC(=N)NCCSCc1nc[nH]c1C .
Result block: 1.34

Query block: Entry under review: O=S(Cc1ccccc1)Cc1ccccc1 . Reported logP?
Result block: 1.99

New cases:
Query block: Could you tell me which logP is on file for Cc1cc(C(=O)NN)ccn1 ?
Result block: -0.37

Query block: Any idea what its logP is? The compound is O=[N+]([O-])c1cc(Cl)c(O)c(Cl)c1
Result block: 2.94

Query block: Which measured logP value corresponds to C[C@]1(O)CC[C@H]2[C@@H]3CCC4=CC(=O)CC[C@@H]4[C@H]3CC[C@@]21C ?
Result block: 2.99

Query block: Requested read-out: logP. Entry: CCOC(=O)C(=Cc1ccc(Cl)cc1Cl)C(C)=O
Result block: 3.67

Query block: Record request: logP value, item c1ccc(-c2ncc[nH]2)cc1
Result block: 1.88

Query block: Which logP is listed for O=CC(Cl)(Cl)Cl ?
Result block: 0.99

Query block: Which logP value belongs to CNCC(O)c1ccc(O)c(OC)c1 (centres undefined) ?
Result block: -0.64

Query block: For the compound COc1cccc([N+](=O)[O-])c1 , what logP is on record?
Result block: 2.16

Query block: Which logP value belongs to C=C=C ?
Result block: 1.45

Query block: Looking for the measured logP of COc1ccc(N(C)C)cc1 , can you help?
Result block: 1.42

###

# binarize logP: threshold 2 inclusive, high side label 1, low side label 0

Some solved cases for reference:
Query block: Determine whether measured logP meets or exceeds 2 for Cc1nnc(NS(=O)(=O)c2ccc(N)cc2)s1
Result block: label 0

Query block: Does logP meet or surpass 2 for N#Cc1ccc[nH]1 ?
Result block: label 0

Query block: Would you say C=CCC shows logP at minimum 2?
Result block: label 1

Query block: Kindly determine if logP recorded for COC(=O)[C@@H]1C2CCC(C[C@@H]1OC(=O)c1ccccc1)N2C (stereo partly drawn) is above or exactly 2.
Result block: label 1

Query block: Please indicate if the recorded logP for Cc1ccc(C)c(O)c1 meets or exceeds 2.
Result block: label 1

---
Query block: Hi, just wondering whether Clc1cc(Cl)c(Cl)c(-c2c(Cl)c(Cl)c(Cl)c(Cl)c2Cl)c1Cl shows logP of 2 or higher.
Result block: label 1

Query block: Check this compound for logP at or above 2: CCOC(=O)Oc1cccc2cccnc12
Result block: label 0

Query block: In plain terms: is recorded logP at least 2 for OC1(c2ccc(Cl)cc2)CCN(CCCC2(c3ccc(F)cc3)OCCO2)CC1 ?
Result block: label 1

Origin of values: the OPERA property sets (Mansouri et al. 2018)
